# maps each entry to its IC50
tested.system: Pim-3 (Homo sapiens, UniProt Q86V86)
Construct: His6-labelled recombinant full-length human Pim-1, Pim-2 or Pim-3 protein; His6; made in house
experiment: TR-FRET assay, Pim-3 kinase (phosphorylation of Bad Ser112)
Type: biochemical
test.parameters: TR-FRET; ATP 40 μM; read-out: IC50 Pim3

{"smiles.representation": "CC(C)(C)OC(=O)N1CCN(c2ccc(-c3cnc4[nH]c5cnc(-c6cccnc6)cc5c4c3)cc2)CC1", "tested.system": "Pim-3 (Homo sapiens, UniProt Q86V86)", "IC50": "100 to 1000 nM"}
{"smiles.representation": "Fc1cnc2[nH]c3cnc(-c4ccsc4)cc3c2c1", "tested.system": "Pim-3 (Homo sapiens, UniProt Q86V86)", "IC50": "> 5000 nM"}
{"smiles.representation": "Clc1cnc2[nH]c3cnc(-c4cccnc4)cc3c2c1", "tested.system": "Pim-3 (Homo sapiens, UniProt Q86V86)", "IC50": "100 to 1000 nM"}

Per the records, this molecule ( "Cn1cc(-c2cc3c(cn2)[nH]c2ncc(F)c(-c4ccc(NS(C)(=O)=O)cc4)c23)cn1" ) has IC50 equal to 1 to 100 nM

Per the records, this molecule ( "NS(=O)(=O)c1cccc(-c2c(F)cnc3[nH]c4cnc(-c5cccnc5)cc4c23)c1" ) has IC50 equal to 100 to 1000 nM

Per the records, this molecule ( "CN(C)CCCOc1ccc(-c2cnc3[nH]c4cnc(-c5cccnc5)cc4c3c2)cc1" ) has IC50 equal to 1 to 100 nM

Per the records, this molecule ( "CS(=O)(=O)Nc1ccc(-c2c(F)cnc3[nH]c4cnc(-c5cccnc5)cc4c23)cc1" ) has IC50 equal to 1 to 100 nM

Per the records, this molecule ( "CCN(CC)C(=O)c1cccc(-c2cnc3[nH]c4cnc(-c5cccnc5)cc4c3c2)c1" ) has IC50 equal to 1 to 100 nM

---

# maps each entry to its IC50
tested.system: Pim-2 (Homo sapiens, UniProt Q9P1W9)
Construct: His6-labelled recombinant full-length human Pim-1, Pim-2 or Pim-3 protein; His6; made in house
Sequence (Q9P1W9 whole entry): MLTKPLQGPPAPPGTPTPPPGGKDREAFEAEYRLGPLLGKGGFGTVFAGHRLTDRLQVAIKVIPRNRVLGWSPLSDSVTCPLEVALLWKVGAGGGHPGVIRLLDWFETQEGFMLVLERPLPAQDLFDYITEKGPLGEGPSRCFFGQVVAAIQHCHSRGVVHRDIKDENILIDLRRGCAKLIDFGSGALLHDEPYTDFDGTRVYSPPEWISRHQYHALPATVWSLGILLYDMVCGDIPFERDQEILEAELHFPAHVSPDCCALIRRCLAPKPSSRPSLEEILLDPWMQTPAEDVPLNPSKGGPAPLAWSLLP
experiment: TR-FRET assay, Pim-2 kinase (phosphorylation of Bad Ser112)
Format: biochemical
test.parameters: comparative compounds (Compound No., not claimed); read-out: IC50 Pim2

{"smiles.representation": "COc1cc2c(cn1)[nH]c1cnc(-c3cccnc3)cc12", "value.reported": "> 5 µM"}

Alright, here's another molecule for you.
Per the records, this molecule ( "c1cncc(-c2cnc3[nH]c4ncccc4c3c2)c1" ) has IC50 equal to > 5 µM

---

tested.system: Pim-3 (Homo sapiens, UniProt Q86V86)
Construct: His6-labelled recombinant full-length human Pim-1, Pim-2 or Pim-3 protein; His6; made in house
experiment: TR-FRET assay, Pim-3 kinase (phosphorylation of Bad Ser112)
Type: biochemical
test.parameters: TR-FRET; ATP 40 μM; read-out: IC50 Pim3
Description: In order to determine the inhibition of activation of Pim kinases, the compounds of the invention are tested in accordance with a routinely used in vitro TR-FRET assay (Time-Resolved Fluorescence Resonance Energy Transfer). […] For the assay, the following reagents are used: […]
pIC50: −log10 of the molar value.
reported.metric: pIC50

Worked set:
{"compound": "c1cncc(-c2cc3c(cn2)[nH]c2ncc(-c4ccc(OCCN5CCOCC5)cc4)cc23)c1 [Example 148]", "pIC50": "7.00 to 9.00"}
{"compound": "O=C(O)CCC(=O)Nc1cccc(-c2c(F)cnc3[nH]c4cnc(-c5cccnc5)cc4c23)c1 [Example 65]", "pIC50": "5.30 to 6.00"}
{"compound": "CCN(CC)CCCN1CCN(c2c(F)cnc3[nH]c4cnc(-c5cccnc5)cc4c23)CC1 [Example 89]", "pIC50": "6.00 to 7.00"}

Per the reported Pim-3 (Homo sapiens, UniProt Q86V86) data, Oc1ccc(-c2c(F)cnc3[nH]c4cnc(-c5cccnc5)cc4c23)cc1 [Example 95] has pIC50 of 6.00 to 7.00

Per the reported Pim-3 (Homo sapiens, UniProt Q86V86) data, CS(=O)(=O)N1CCN(CCCOc2ccc(-c3cnc4[nH]c5cnc(-c6cccnc6)cc5c4c3)cc2)CC1 [Example 152] has pIC50 of 7.00 to 9.00

Per the reported Pim-3 (Homo sapiens, UniProt Q86V86) data, Fc1cnc2[nH]c3cnc(-c4cccnc4)cc3c2c1/C=C/c1ccccc1 [Example 24] has pIC50 of 5.30 to 6.00

Per the reported Pim-3 (Homo sapiens, UniProt Q86V86) data, CC(C)C(=O)Nc1ccc(-c2c(F)cnc3[nH]c4cnc(-c5cccnc5)cc4c23)cc1 [Example 68] has pIC50 of 6.00 to 7.00

Per the reported Pim-3 (Homo sapiens, UniProt Q86V86) data, Oc1ccc(-c2cnc3[nH]c4cnc(-c5cccnc5)cc4c3c2)cc1 [Example 151] has pIC50 of 7.00 to 9.00

Provenance of the data: patent US20110178053A1
